molecular target: Homeodomain-interacting protein kinase 2 (Homo sapiens) (UniProt Q9H2X6); details: at 10 µM
Sequence (Q9H2X6 whole entry, looked up): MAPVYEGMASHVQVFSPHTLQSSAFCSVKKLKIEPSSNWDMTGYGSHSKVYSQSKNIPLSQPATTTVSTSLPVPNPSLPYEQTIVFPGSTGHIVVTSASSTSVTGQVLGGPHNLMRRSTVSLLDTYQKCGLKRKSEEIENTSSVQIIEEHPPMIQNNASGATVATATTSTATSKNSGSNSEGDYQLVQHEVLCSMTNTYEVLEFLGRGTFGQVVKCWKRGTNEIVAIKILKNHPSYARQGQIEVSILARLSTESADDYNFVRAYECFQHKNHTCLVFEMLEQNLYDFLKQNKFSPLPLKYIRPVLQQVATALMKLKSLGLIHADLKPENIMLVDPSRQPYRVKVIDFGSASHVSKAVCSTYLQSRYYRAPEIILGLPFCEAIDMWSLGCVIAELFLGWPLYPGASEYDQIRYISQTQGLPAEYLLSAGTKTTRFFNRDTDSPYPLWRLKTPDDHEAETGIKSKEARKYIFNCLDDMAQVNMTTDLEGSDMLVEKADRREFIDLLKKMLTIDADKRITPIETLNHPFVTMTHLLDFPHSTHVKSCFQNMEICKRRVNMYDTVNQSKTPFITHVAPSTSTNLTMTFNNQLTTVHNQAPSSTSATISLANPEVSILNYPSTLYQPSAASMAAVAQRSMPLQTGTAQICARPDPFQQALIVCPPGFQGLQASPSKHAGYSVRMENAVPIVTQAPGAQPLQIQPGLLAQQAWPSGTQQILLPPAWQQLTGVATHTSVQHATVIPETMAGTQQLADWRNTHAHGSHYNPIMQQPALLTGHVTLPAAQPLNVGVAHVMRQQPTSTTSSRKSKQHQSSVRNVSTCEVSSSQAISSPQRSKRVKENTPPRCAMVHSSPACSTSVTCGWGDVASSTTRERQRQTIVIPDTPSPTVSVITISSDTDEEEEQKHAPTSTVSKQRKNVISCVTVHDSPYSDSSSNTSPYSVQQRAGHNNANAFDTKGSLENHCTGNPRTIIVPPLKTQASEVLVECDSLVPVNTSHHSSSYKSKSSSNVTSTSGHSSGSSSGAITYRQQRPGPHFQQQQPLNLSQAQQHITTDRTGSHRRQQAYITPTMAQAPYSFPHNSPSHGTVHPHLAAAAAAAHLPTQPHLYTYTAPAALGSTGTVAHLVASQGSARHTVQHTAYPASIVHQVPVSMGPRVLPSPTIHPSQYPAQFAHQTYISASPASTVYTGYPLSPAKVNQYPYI
Param label: returns Fulfilled when residual activity < 80%, returns Not fulfilled otherwise, including exact equality.

chemical_smiles=Cc1nc(-c2ccccc2)c(-c2ccncc2)o1 label=Fulfilled

Determine whether this molecule shows residual activity lower than 80% (ties excluded): Nc1n[nH]c2nnc(-c3c(-c4ccccc4)nn4ccccc34)cc12
Not fulfilled

Determine whether this molecule shows residual activity lower than 80% (ties excluded): C[C@@H](N)[C@H]1CC[C@H](C(=O)Nc2ccncc2)CC1
Not fulfilled

Determine whether this molecule shows residual activity lower than 80% (ties excluded): O=c1c2ccccc2[nH]c(=S)n1CCN1CCC(=C(c2ccc(F)cc2)c2ccc(F)cc2)CC1
Not fulfilled

Determine whether this molecule shows residual activity lower than 80% (ties excluded): N#CCCc1ccc2c(c1)-c1[nH]c3ccc([N+](=O)[O-])cc3c1CC(=O)N2
Fulfilled

====

Consider the following compounds and their measured residual activity readings.
biological target: Mitogen-activated protein kinase 1 (Homo sapiens) (UniProt P28482); settings: at 1 µM
Sequence (P28482 whole entry): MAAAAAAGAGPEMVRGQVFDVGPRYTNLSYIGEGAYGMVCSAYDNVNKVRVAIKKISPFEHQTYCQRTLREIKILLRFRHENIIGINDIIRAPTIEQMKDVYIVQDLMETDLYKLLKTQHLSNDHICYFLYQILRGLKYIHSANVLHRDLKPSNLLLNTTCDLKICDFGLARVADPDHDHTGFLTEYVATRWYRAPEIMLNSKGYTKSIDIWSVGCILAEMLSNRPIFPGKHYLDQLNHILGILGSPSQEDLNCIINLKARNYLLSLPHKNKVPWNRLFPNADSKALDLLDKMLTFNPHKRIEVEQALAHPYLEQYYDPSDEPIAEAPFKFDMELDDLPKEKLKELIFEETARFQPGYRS
Description: Millipore: Percentage of residual kinase activity of MAPK1 at 1uM relative to control. Control inhibitor: ERK Inhibitor II at 30.0uM. Buffer: 25 mM Tris pH 7.5, 0.02 mM EGTA
Kindly provide the numeric value in % only, without the unit symbol.

chemical_smiles=COc1ccc(S(=O)(=O)N(CCO)c2ccccc2CN(C)C/C=C/c2ccc(Cl)cc2)cc1 output_unit=% numeric_value=111
chemical_smiles=c1ccc2c(-c3ccncc3)c[nH]c2c1 output_unit=% numeric_value=101
chemical_smiles=COc1cccc(-c2cc(=O)c3ccccc3o2)c1N output_unit=% numeric_value=114
chemical_smiles=Cc1cc2ncc(-c3ccccc3)nc2cc1C output_unit=% numeric_value=100
chemical_smiles=COc1cc2ncnc(Nc3ccc(Oc4ccccc4)cc3)c2cc1OC output_unit=% numeric_value=96
chemical_smiles=Ic1cccc(CSc2nnc(-c3ccncc3)o2)c1 output_unit=% numeric_value=111

Read off the recorded residual activity for Oc1c2ccccc2c2c3c(cccc13)N=N2
88

Read off the recorded residual activity for CO[C@H]1C[C@@H]2CC[C@@H](C)[C@@](O)(O2)C(=O)C(=O)N2CCCC[C@H]2C(=O)O[C@H]([C@H](C)C[C@@H]2CC[C@@H](O)[C@H](OC)C2)CC(=O)[C@H](C)/C=C(\C)[C@@H](O)[C@@H](OC)C(=O)[C@H](C)C[C@H](C)/C=C/C=C/C=C/1C
102

Read off the recorded residual activity for Nc1cccc(-c2cc3c(Oc4cccc(O)c4)ncnc3[nH]2)c1
120

Read off the recorded residual activity for c1ccc(-c2n[nH]cc2-c2ccnc3ccccc23)nc1
96

====

molecular target: Serine/threonine-protein kinase pim-3 (Homo sapiens) (UniProt Q86V86); conditions: at 10 µM
OUTCOME_MEASURE: residual activity (%)
Kindly provide the numeric value in % only, without the unit symbol.

chemical_smiles=COc1ccc(CNc2nc(N(CCO)CCO)nc3c2ncn3C(C)C)cc1 subject_of_test="Serine/threonine-protein kinase pim-3 (Homo sapiens) (UniProt Q86V86)" outcome_measure="residual activity" output_unit=% numeric_value=88
chemical_smiles=O=C1NC(=O)c2cc(Nc3ccc(F)cc3)c(Nc3ccc(F)cc3)cc21 subject_of_test="Serine/threonine-protein kinase pim-3 (Homo sapiens) (UniProt Q86V86)" outcome_measure="residual activity" output_unit=% numeric_value=93
chemical_smiles=COc1cc2ncnc(Nc3ccc(Oc4ccccc4)cc3)c2cc1OC subject_of_test="Serine/threonine-protein kinase pim-3 (Homo sapiens) (UniProt Q86V86)" outcome_measure="residual activity" output_unit=% numeric_value=93
chemical_smiles=O=c1cc(-c2cccc3c2Sc2ccccc2S3)oc(N2CCOCC2)c1 subject_of_test="Serine/threonine-protein kinase pim-3 (Homo sapiens) (UniProt Q86V86)" outcome_measure="residual activity" output_unit=% numeric_value=85
chemical_smiles=N#Cc1cnc2cnc(NCc3cccnc3)cc2c1Nc1ccc(F)c(Cl)c1 subject_of_test="Serine/threonine-protein kinase pim-3 (Homo sapiens) (UniProt Q86V86)" outcome_measure="residual activity" output_unit=% numeric_value=94

Read off the recorded residual activity for c1ccc(-c2n[nH]cc2-c2ccnc3ccccc23)nc1
100
